# assay_name: NOD1 signaling inhibitors, primary screen, cell-based, luminescence, uHTS (AID 1578);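 note: HEK-293T reporter cells stimulated with the NOD1 agonist gamma-tri-DAP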
# assay_conditions: NOD1-driven NF-kB luciferase reporter cells, at 4 µM
In all, about 290,000 compounds went through this assay and about 3,000 (1%) were called active. Cut-off read from the data, not from the text of the source: active = inhibition mostly above about 36% (no sharp cut-off); inactive = mostly below about 34%. The full list was thinned out, with actives kept by preference.
# output must be one of true for active, false for inactive

[
  {
    "molecule": "COc1cccc(CNC(=O)CCC(=O)N2CCSc3ccccc32)c1OC",
    "class_name": "false"
  }
]

For this molecule, state the assay outcome: COc1ccc2cc(C(N)=O)c(=Nc3ccccc3)oc2c1
false

Dear all, I need the recorded test outcome for COc1ccc(Cn2c3nc4ccccc4nc3c3c(=O)n(Cc4ccco4)c(C)nc32)cc1 , thank you.
true

Would you mind telling me which call this test gave COc1ccc(/C=C2\Sc3ccc(C(=O)NCc4cccnc4)cc3N(C)C2=O)cc1OC ?
true

Name the outcome recorded for Clc1ccc(-n2nnc(-c3cccnc3Cl)n2)cc1Cl in the assay.
false

In this assay, the call recorded for NC(=O)CCc1nc2cc(C(F)(F)F)ccc2n(Cc2ccccc2)c1=O was what?
false

Would you mind telling me which call this test gave Cc1ccc(C(=O)NC(=S)N2CCN(c3ccccc3F)CC2)cc1 ?
false

Assay outcome for CCCCCCc1cc2cc(C(N)=O)c(=N)oc2cc1O : what was it?
false

====

# assay_name: NOD1 signaling inhibitors, primary screen, cell-based, luminescence, uHTS (AID 1578);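 note: HEK-293T reporter cells stimulated with the NOD1 agonist gamma-tri-DAP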
# assay_conditions: NOD1-driven NF-kB luciferase reporter cells, at 4 µM
The campaign covered roughly 290,000 compounds. About 3,000 (1%) were called active. Rule as the data show it: active = inhibition mostly above about 36% (no sharp cut-off); inactive = mostly below about 34%. Many of the other results were omitted from the sample, so actives are more common in it than they were.
Just give me one of these, please: label 1 = active, label 0 = inactive

Examples with answers:
[
  {
    "compound": "CCOC(=O)c1c(C)[nH]c(C(=O)OC/C(O)=C(\\C#N)c2nc3ccccc3[nH]2)c1C",
    "class_name": "label 0"
  },
  {
    "compound": "CC(C(=O)N(C1CC1)C1(C(=O)Nc2ccccc2)CCCC1)N1C(=O)c2ccccc2C1=O (stereo not given)",
    "class_name": "label 0"
  },
  {
    "compound": "COc1cc(OC)cc(C(=O)OC/C(O)=C(\\C#N)c2nc3ccccc3[nH]2)c1",
    "class_name": "label 0"
  },
  {
    "compound": "COc1ccc(N/N=C(/N=Nc2nc(C)cc(=O)[nH]2)c2ccccc2)cc1",
    "class_name": "label 0"
  },
  {
    "compound": "N#C/C(=C(/O)COC(=O)Cc1c[nH]c2ccccc12)c1nc2ccccc2[nH]1",
    "class_name": "label 0"
  },
  {
    "compound": "N#C/C(=C(/O)COC(=O)c1ccc(Cl)c(S(=O)(=O)N2CCOCC2)c1)c1nc2ccccc2[nH]1",
    "class_name": "label 0"
  }
]

What call does the record list for Oc1c(N=Nc2ccccn2)ccc2ccccc12 ?
label 1

Hi, sorry to bother you, what did the test record for N#C/C(=C(/O)COC(=O)c1ccc(O)cc1)c1nc2ccccc2[nH]1 ?
label 0

Returns: the outcome recorded for Cc1cc(=O)[nH]c(N=N/C(=N/Nc2ccccc2C)c2ccccc2)n1 in this assay.
label 0

Check the results log: what was the call for CCCC(=O)OC/C(O)=C(\C#N)c1nc2ccccc2[nH]1 ?
label 1

The origin of these recorded values is PubChem BioAssay AID1578.
